This collection of values is drawn from ChEMBL document CHEMBL4431337.

System: Aphis craccivora
Experiment: Insecticidal activity against Aphis craccivora assessed as mortality at 100 ug/ml pre-incubated with horsebean shoot with aphids for 2 secs and measured 48 hrs post dose by foliar application method
Assay type: functional
Result type: mortality at 100 µg/mL (%)

Structure smiles string	Readout unit	Val
Cc1nnsc1CO/N=C/c1c(C)nn(C)c1Oc1ccc(OC(F)(F)F)cc1	%	85
Cc1ccc(Oc2c(/C=N/OCc3snnc3C)c(C)nn2C)cc1	%	90
Cc1nnsc1CO/N=C/c1c(C)nn(C)c1Oc1ccc(C(C)(C)C)cc1	%	80
O=[N+]([O-])/N=C1\NCCN1Cc1ccc(Cl)nc1	%	100
Cc1nnsc1CO/N=C/c1c(C)nn(C)c1Oc1cccc(F)c1	%	80
Cc1cccc(Oc2c(/C=N/OCc3snnc3C)c(C)nn2C)c1	%	70
Cc1nnsc1CO/N=C/c1c(C)nn(C)c1Oc1ccc(F)cc1	%	90
Cc1nnsc1CO/N=C/c1c(C)nn(C)c1Oc1ccc(I)cc1	%	70
Cc1nnsc1CO/N=C/c1c(C)nn(C)c1Oc1cc(F)cc(F)c1	%	75
Cc1nnsc1CO/N=C/c1c(C)nn(C)c1Cl	%	85
Cc1nnsc1CO/N=C/c1c(C)nn(C)c1Oc1cccc(C(F)(F)F)c1	%	55
